condition parameters: 328.15 K; 101.33 kPa; Liquid
Reported mass density by item:
Record the value in kg/m3, omitting the unit from your answer.

Solved entries:
C1COCO1 [1,3-dioxolane]: 1039.88
C1CCOCC1 [tetrahydropyran]: 863.67
CCCCCCCl [1-chlorohexane]: 859.01
C1CCOC1 [tetrahydrofuran]: 865.36

Moving on to the next compound.
Query: Bench note: what mass density did C1COCCO1 [1,4-dioxane] show?
Response: 1010.69

====

condition parameters: 298.15 K; 101.33 kPa; Liquid
Numbers after ± are expanded uncertainties.
reported metric: mass density
Enter the number, and then the unit.

Solved entries:
C1CCOCC1 [tetrahydropyran]: 878.81 ± 0.81 kg/m3
C1CCOC1 [tetrahydrofuran]: 881.95 ± 0.45 kg/m3
CCCCCCCl [1-chlorohexane]: 873.5 kg/m3

Query: Bench note: what mass density did C1COCCO1 [1,4-dioxane] show?
Response: 1027.87 ± 0.6 kg/m3

Query: Same question for C1COCO1 [1,3-dioxolane] please.
Response: 1058.62 ± 0.71 kg/m3
